Test system: SARS-CoV-2 P.1 (gamma)
Assay: microbe, parasite or virus in culture
Assay type: cell-based
Conditions: Severe acute respiratory syndrome coronavirus 2, Vero C1008; read-out: IC50 against P.1, 24 h infection
EXPERIMENTAL ENDPOINT: IC50 (nM)
Write the number in nM without appending the unit.

# lookup: IC50 of O=C(Nc1ccc([N+](=O)[O-])cc1Cl)c1cc(Cl)ccc1O [Niclosamide]
399

Reference for the values: paper PMC9412300
